RHUCX2 % Inh. at Dose (μM) by entry:
TARGET: recombinant human Cox-2 (r-hu Cox-2) (Homo sapiens)
Construct: made in house; host or cells: baculovirus/Sf9 insect cells (microsomes)
Sequence (P35354 18-604): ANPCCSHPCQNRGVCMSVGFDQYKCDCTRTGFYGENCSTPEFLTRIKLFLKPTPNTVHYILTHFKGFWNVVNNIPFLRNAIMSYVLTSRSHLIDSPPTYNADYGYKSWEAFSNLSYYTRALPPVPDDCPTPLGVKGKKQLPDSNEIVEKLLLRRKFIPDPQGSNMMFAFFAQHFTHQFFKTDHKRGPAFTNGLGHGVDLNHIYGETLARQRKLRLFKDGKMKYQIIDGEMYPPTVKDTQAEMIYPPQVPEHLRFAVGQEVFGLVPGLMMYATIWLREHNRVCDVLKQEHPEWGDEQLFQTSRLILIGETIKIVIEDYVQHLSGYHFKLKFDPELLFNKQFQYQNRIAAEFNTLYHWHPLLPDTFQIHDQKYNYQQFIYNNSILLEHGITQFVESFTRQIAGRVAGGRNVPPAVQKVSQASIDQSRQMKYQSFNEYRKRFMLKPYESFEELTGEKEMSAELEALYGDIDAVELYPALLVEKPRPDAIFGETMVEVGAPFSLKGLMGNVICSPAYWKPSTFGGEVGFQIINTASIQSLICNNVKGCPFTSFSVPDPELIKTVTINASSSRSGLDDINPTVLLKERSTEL
ASSAY SUMMARY: Recombinant human PGHS-2 enzyme assay (RHUCX2)
Assay type: biochemical
TEST CONTEXT: 0.01 μM

| SMILES | RHUCX2 % Inh. at Dose (μM) |
| --- | --- |
| NS(=O)(=O)c1ccc(-c2cnn(CC3=CCCCC3)c(=O)c2-c2ccc(F)cc2)cc1 | 56 @ 0.01% |

The reported value for `CC(C)CCc1c(-c2ccc(S(C)(=O)=O)cc2)cnn(CC(F)(F)F)c1=O` in terms of RHUCX2 % Inh. at Dose (μM) is 40 @ 0.01%

The reported value for `Cc1ccc(-c2c(-c3ccc(S(N)(=O)=O)cc3)cnn(-c3ccc(F)cc3)c2=O)cc1F` in terms of RHUCX2 % Inh. at Dose (μM) is 56 @ 0.01%

The reported value for `C=C(C)Cn1ncc(-c2ccc(S(C)(=O)=O)cc2)c(-c2ccc(F)cc2)c1=O` in terms of RHUCX2 % Inh. at Dose (μM) is 27 @ 0.01%

The reported value for `CC(C)=CCCOc1c(-c2ccc(S(C)(=O)=O)cc2)cnn(-c2ccc(F)cc2)c1=O` in terms of RHUCX2 % Inh. at Dose (μM) is 33 @ 0.01%

----------
inhibition in vivo at 10 mg/kg by entry:
Test system: carrageenan induced paw edema
ASSAY SUMMARY: Carrageenan induced paw edema (CPE) in rats
Assay type: in vivo
TEST CONTEXT: 10 mpk oral, rat, 3 hours after carrageenan; read-out: CPE % Inhib. @ 10 mpk
Give the value in % but do not write % after it.

| SMILES | MEASUREMENT UNITS | inhibition in vivo at 10 mg/kg |
| --- | --- | --- |
| CC(C)CCOc1c(-c2ccc(S(C)(=O)=O)cc2)cnn(-c2cccc(Cl)c2)c1=O | % | 43 |
| CC(C)(O)CCOc1c(-c2ccc(S(C)(=O)=O)cc2)cnn(-c2ccc(F)c(F)c2)c1=O | % | 41 |
| CS(=O)(=O)c1ccc(-c2cnn(CC(F)(F)F)c(=O)c2-c2ccc(Cl)cc2)cc1 | % | 14 |

Okay, now this molecule:
The reported value for `NS(=O)(=O)c1ccc(-c2cnn(Cc3ccccc3)c(=O)c2-c2ccc(F)cc2)cc1` in terms of inhibition in vivo at 10 mg/kg is 15

----------
TARGET: recombinant human Cox-1 (r-hu Cox1) (Homo sapiens, UniProt P23219)
Construct: made in house; host or cells: baculovirus/Sf9 insect cells (microsomes)
ASSAY SUMMARY: Recombinant human PGHS-1 enzyme assay (RHUCX1)
Type: biochemical
TEST CONTEXT: 10 μM; read-out: RHUCX1 % Inh. at Dose
QUANTITY NAME: inhibition at 10 µM (%)
Give the value in % but do not write % after it.

| COMPOUND | inhibition at 10 µM (%) |
| --- | --- |
| NS(=O)(=O)c1ccc(-c2cnn(Cc3ccccc3)c(=O)c2-c2ccc(F)cc2)cc1 | 49 |
| CC1(n2ncc(-c3ccc(S(C)(=O)=O)cc3)c(-c3ccc(F)cc3)c2=O)CCCC1 | 35 |
| NS(=O)(=O)c1ccc(-c2cnn(-c3ccc(F)cc3)c(=O)c2Cc2cccc(F)c2)cc1 | 29 |

The reported value for `CC(C)CCc1c(-c2ccc(S(N)(=O)=O)cc2)cnn(-c2cccc(Cl)c2)c1=O` in terms of inhibition at 10 µM is 35

The reported value for CC(c1ccc(F)c(F)c1F)n1ncc(-c2ccc(S(N)(=O)=O)cc2)c(-c2ccc(F)cc2)c1=O (stereo not shown) in terms of inhibition at 10 µM is 82

The reported value for `NS(=O)(=O)c1ccc(-c2cnn(CC(F)(F)F)c(=O)c2-c2ccc(Cl)c(F)c2)cc1` in terms of inhibition at 10 µM is 41

The reported value for `CC(C)=CCn1ncc(-c2ccc(S(C)(=O)=O)cc2)c(-c2ccc(F)cc2)c1=O` in terms of inhibition at 10 µM is 0

----------
TARGET: Human Whole Platelet Cyclooxygenase-1 (Homo sapiens, UniProt P23219)
ASSAY SUMMARY: Human Whole Platelet Cyclooxygenase-1 assay (HWPX)
TEST CONTEXT: read-out: HWPX IC50 (parenthetical value)
QUANTITY NAME: IC50 (nM)
Give the value in nM but do not write nM after it.

Below, each entry is followed by its recorded IC50 result.
| COMPOUND | QUANTITY NAME | EXPERIMENTAL VALUE |
| --- | --- | --- |
| NS(=O)(=O)c1ccc(-c2cnn(CC(F)(F)F)c(=O)c2-c2ccc(Cl)cc2)cc1 [Example 69] | IC50 | 1140 |
| CC(C)CCc1c(-c2ccc(S(N)(=O)=O)cc2)cnn(-c2ccc(F)c(F)c2)c1=O [Example 404] | IC50 | 337 |
| Cc1ccc(-c2c(-c3ccc(S(C)(=O)=O)cc3)cnn(-c3cccc(Cl)c3)c2=O)cc1 [Example 370] | IC50 | 8400 |
| CC(C)CCc1c(-c2ccc(S(N)(=O)=O)cc2)cnn(-c2cccc(Cl)c2)c1=O [Example 392] | IC50 | 1950 |

# value of IC50, Human Whole Platelet Cyclooxygenase-1 (Homo sapiens, UniProt P23219), item CS(=O)(=O)c1ccc(-c2cnn(-c3ccc(F)cc3)c(=O)c2COc2ccc(F)cc2)cc1 [Example 194] = 28100

# value of IC50, Human Whole Platelet Cyclooxygenase-1 (Homo sapiens, UniProt P23219), item C[S+]([O-])c1ccc(-c2cnn(CC(F)(F)F)c(=O)c2-c2ccc(Cl)cc2)cc1 (centres unmarked) [Example 77] = 8800

# value of IC50, Human Whole Platelet Cyclooxygenase-1 (Homo sapiens, UniProt P23219), item C=C(F)C(F)(F)n1ncc(-c2ccc(S(N)(=O)=O)cc2)c(-c2ccc(F)cc2)c1=O [Example 142] = 7530

# value of IC50, Human Whole Platelet Cyclooxygenase-1 (Homo sapiens, UniProt P23219), item NS(=O)(=O)c1ccc(-c2cnn(CC=C(Cl)Cl)c(=O)c2-c2ccc(F)cc2)cc1 [Example 119] = 76

# value of IC50, Human Whole Platelet Cyclooxygenase-1 (Homo sapiens, UniProt P23219), item NS(=O)(=O)c1ccc(-c2cnn(-c3ccc(F)cc3)c(=O)c2-c2ccc(F)cc2)cc1 [Example 89] = 2100

# value of IC50, Human Whole Platelet Cyclooxygenase-1 (Homo sapiens, UniProt P23219), item CS(=O)(=O)c1ccc(-c2cnn(-c3cccc(Cl)c3)c(=O)c2-c2ccc(F)cc2)cc1 [Example 165] = 1900

----------
TARGET: Cox-1 in Monocyte U937 cells (Homo sapiens, UniProt P23219)
Construct: endogenous in cells; host or cells: U937 monocyte cells (ATCC)
Sequence (P23219 24-599): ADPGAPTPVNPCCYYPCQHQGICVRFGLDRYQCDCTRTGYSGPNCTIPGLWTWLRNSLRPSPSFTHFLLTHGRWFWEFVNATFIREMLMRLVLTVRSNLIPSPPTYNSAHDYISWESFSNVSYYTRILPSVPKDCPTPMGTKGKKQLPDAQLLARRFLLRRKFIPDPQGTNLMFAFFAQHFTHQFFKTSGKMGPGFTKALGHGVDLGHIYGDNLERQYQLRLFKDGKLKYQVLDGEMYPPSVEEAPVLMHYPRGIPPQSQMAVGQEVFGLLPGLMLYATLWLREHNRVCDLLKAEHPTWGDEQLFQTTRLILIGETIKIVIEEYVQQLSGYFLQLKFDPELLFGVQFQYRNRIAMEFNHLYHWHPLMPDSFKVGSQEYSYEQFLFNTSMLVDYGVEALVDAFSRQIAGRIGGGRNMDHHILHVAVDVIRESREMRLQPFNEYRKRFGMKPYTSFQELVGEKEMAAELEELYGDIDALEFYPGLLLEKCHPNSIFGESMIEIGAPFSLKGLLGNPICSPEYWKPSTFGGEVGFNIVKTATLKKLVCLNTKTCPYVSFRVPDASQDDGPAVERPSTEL
ASSAY SUMMARY: Monocyte U937 cell Cox-1 assay
Assay type: cell-based
TEST CONTEXT: read-out: U937 IC50 (parenthetical value)
QUANTITY NAME: pIC50
// scale note: pIC50 = -log10(conc_M); give the bare number

| COMPOUND | EXPERIMENTAL VALUE |
| --- | --- |
| NS(=O)(=O)c1ccc(-c2cnn(-c3ccc(F)cc3)c(=O)c2-c2ccc(F)cc2)cc1 [Example 89] | 5.42 |

Okay, now this compound:
# value of pIC50, Cox-1 in Monocyte U937 cells (Homo sapiens, UniProt P23219), item CC(C)=CCn1ncc(-c2ccc(S(C)(=O)=O)cc2)c(-c2ccc(F)cc2)c1=O [Example 24] = 6.72

----------
melting point by entry:

Below, each entry is followed by its recorded melting point result.
| SMILES | EXPERIMENTAL VALUE |
| --- | --- |
| CC(C)(O)CCOc1c(-c2ccc(S(C)(=O)=O)cc2)cnn(-c2ccc(F)c(F)c2)c1=O | 131 to 133 °C |
| CS(=O)(=O)c1ccc(-c2cnn(-c3ccc(S(N)(=O)=O)cc3)c(=O)c2-c2ccc(F)cc2)cc1 | 213 to 216 °C |
| CSc1cc(-n2ncc(-c3ccc(S(C)(=O)=O)cc3)c(-c3ccc(F)cc3)c2=O)ccc1F | 105 to 107 °C |

The reported value for `CC(C)(O)CCOc1c(-c2ccc(S(C)(=O)=O)cc2)cnn(-c2cccc(C(F)(F)F)c2)c1=O` in terms of melting point is 90 to 93 °C

The reported value for `CC(C)COc1c(-c2ccc(S(C)(=O)=O)c(F)c2)cnn(-c2ccc(F)c(Cl)c2)c1=O` in terms of melting point is 142 to 144 °C

The reported value for `CS(=O)(=O)c1ccc(-c2cnn(-c3ccc(F)cc3)c(=O)c2N2CCCC2)cc1` in terms of melting point is 192 to 195 °C

The reported value for `CS(=O)(=O)c1ccc(-c2cnn(Cc3ccccc3)c(=O)c2-c2ccc(Cl)c(Cl)c2)cc1` in terms of melting point is 161 to 163 °C
